- assay-system: DPP-IV (Homo sapiens)
- Construct: an extract of human colon carcinoma cell line Caco-2 is used as the DPP IV source; endogenous in cells; solubilised in Nonidet-P40 buffer
- assay-info: DPP-IV assay with extract of Caco-2 cells as DPP IV source, AFC substrate, fluorescence
- experimental-setup: extract of human colon carcinoma cell line Caco-2 as DPP IV source; substrate 100 μM; 60 minutes at ambient temperature; read-out: DPP IV inhibition IC50
So basically: is IC50 under 4 nM? Then Fulfilled. Not under? Then Not fulfilled.

• CC#CCn1c(N2CCC[C@@H](N)C2)nc2c1c(=O)n(Cc1nc3cccnc3c3ccccc13)c(=O)n2C = Fulfilled
• CC#CCn1c(N2CCCC(N)C2)nc2c1c(=O)n(CC1=NCCOc3ccccc31)c(=O)n2C (centres unmarked) = Not fulfilled
• CC#CCn1c(N2CCCC(N)C2)nc2c1c(=O)n(Cc1nc3ccccc3c3ncccc13)c(=O)n2C (centres unmarked) = Not fulfilled
• CC#CCn1c(N2CCCC(N)C2)nc2c1c(=O)n(CC1=Nc3ccccc3N(C)c3ccccc31)c(=O)n2C (centres unmarked) = Not fulfilled
• CC#CCn1c(N2CCCC(N)C2)nc2c1c(=O)n(Cc1nc3c(c4ccccc14)CCCC3)c(=O)n2C (centres unmarked) = Not fulfilled
• CC#CCn1c(N2CCCC(N)C2)nc2c1c(=O)n(Cc1nc3ncccc3c3ccccc13)c(=O)n2C (centres unmarked) = Fulfilled
• CC(C)=CCn1c(N2CCCC(N)C2)nc2c1c(=O)n(/C=C1\NC(=O)c3ccccc31)c(=O)n2C (centres unmarked) = Not fulfilled
• CC#CCn1c(N2CCCC(N)C2)nc2c1c(=O)n(CC1=NC(C)(C(=O)OC)Cc3ccccc31)c(=O)n2C (centres unmarked) = Not fulfilled
• CC#CCn1c(N2CCC[C@@H](N)C2)nc2c1c(=O)n(CC1=Nc3cccc4cccc(c34)N1)c(=O)n2C = Fulfilled
• CC#CCn1c(N2CCCC(N)C2)nc2c1c(=O)n(Cc1nc3ccccc3c3ccnn13)c(=O)n2C (centres unmarked) = Not fulfilled
• CC#CCn1c(N2CCC[C@@H](N)C2)nc2c1c(=O)n(Cc1cc3nccnc3c3ccccc13)c(=O)n2C = Fulfilled
• CC(C)=CCn1c(N2CCCC(N)C2)nc2c1c(=O)n(CC1=CS(=O)(=O)N(C)c3ccccc31)c(=O)n2C (centres unmarked) = Not fulfilled
• CC#CCn1c(N2CCCC(N)C2)nc2c1c(=O)n(CC1=Nc3ccccc3CN1)c(=O)n2C (centres unmarked) = Not fulfilled
• CC#CCn1c(N2CCCC(N)C2)nc2c1c(=O)n(Cc1ccc3nonc3c1)c(=O)n2C (centres unmarked) = Not fulfilled

---

- assay-system: DPP-IV (Homo sapiens, UniProt P27487)
- Construct: an extract of human colon carcinoma cell line Caco-2 is used as the DPP IV source; endogenous in cells; solubilised in Nonidet-P40 buffer
- Sequence (P27487 whole entry): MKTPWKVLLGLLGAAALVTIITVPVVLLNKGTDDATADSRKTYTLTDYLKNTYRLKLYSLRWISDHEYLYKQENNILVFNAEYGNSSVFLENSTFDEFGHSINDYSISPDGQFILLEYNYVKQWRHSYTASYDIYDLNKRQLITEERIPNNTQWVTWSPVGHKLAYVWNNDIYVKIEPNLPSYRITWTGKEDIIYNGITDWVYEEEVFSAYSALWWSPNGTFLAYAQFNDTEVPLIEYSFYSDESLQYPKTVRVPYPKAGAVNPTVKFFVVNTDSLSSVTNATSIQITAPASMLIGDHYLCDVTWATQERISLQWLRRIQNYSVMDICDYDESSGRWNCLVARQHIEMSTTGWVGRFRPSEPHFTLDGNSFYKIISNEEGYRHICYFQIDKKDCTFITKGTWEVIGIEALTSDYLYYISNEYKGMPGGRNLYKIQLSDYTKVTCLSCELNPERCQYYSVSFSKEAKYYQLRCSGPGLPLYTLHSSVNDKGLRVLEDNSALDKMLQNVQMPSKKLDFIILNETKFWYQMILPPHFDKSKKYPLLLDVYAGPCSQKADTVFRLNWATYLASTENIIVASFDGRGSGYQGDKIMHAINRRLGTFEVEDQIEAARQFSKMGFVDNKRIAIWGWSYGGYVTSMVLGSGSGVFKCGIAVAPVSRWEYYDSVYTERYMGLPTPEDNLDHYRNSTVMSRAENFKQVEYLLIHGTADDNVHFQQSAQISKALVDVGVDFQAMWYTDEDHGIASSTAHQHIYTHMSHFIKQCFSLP
- assay-info: DPP-IV assay with extract of Caco-2 cells as DPP IV source, AFC substrate, fluorescence
- experimental-setup: extract of human colon carcinoma cell line Caco-2 as DPP IV source; substrate 100 μM; 60 minutes at ambient temperature; read-out: DPP IV inhibition IC50
- Description: The differentiation of the cells in order to induce the DPP-IV expression was carried out as described by Reiher et al. in an article entitled “Increased expression of intestinal cell line Caco-2”, which appeared in Proc. Natl. Acad. Sci. Vol. 90, pages 5757-5761 (1993). The cell extract was obtained from cells solubilised in a buffer (10 mM Tris HCl, 0.15 M NaCl, 0.04 t.i.u. aprotinin, 0.5% Nonidet-P40, pH 8.0) by centrifuging at 35,000 g for 30 minutes at 4° C. (to remove cell debris). […]
pIC50: −log10 of the molar value.
readout-label: pIC50

- CC#CCn1c(N2CCCC(N)C2)nc2c1c(=O)n(Cc1cn3c(ccc4ccccc43)n1)c(=O)n2C (stereo not drawn) [1(32)]: 8.40
- CC#CCn1c(N2CCC[C@@H](N)C2)nc2c1c(=O)n(Cc1nc3ccccc3c3ccccc13)c(=O)n2C [1(33)]: 8.40
- CC#CCn1c(N2CCC[C@@H](N)C2)nc2c1c(=O)n(CC1=Nc3ccccc3Oc3ccccc31)c(=O)n2C [1(8)]: 8.40
